System: MCF7
Assay explanation: Cytotoxicity assay (cell titer-glo and calcein AM), MCF7
Test settings: read-out: Cytotoxicity IC50, MCF7, CTG, CTG (cell titer-glo) readout, % error in parentheses
IC50 overview
Note: unit nM is implicit; provide only the numeric part.

Below: 2 compounds and their reported IC50.
# query: IC50 | item COc1cc2c(c(OC)c1OC)-c1ccc(OC)c(=O)cc1[C@@H](NC(=O)CN(OC)[C@@H]1O[C@H](C(=O)O)[C@@H](O)[C@H](O)[C@H]1O)CC2 [Col15, D-glucuronoside] | system: MCF7 990

# query: IC50 | item COc1cc2c(c(OC)c1OC)-c1ccc(OC)c(=O)cc1[C@@H](NC(=O)CN(OC)[C@@H]1O[C@H](CO)[C@@H](N=[N+]=[N-])[C@H](O)[C@H]1O)CC2 [Col44, 4-deoxy-4-azido-D-glucoside] | system: MCF7 596

New cases:
# query: IC50 | item COc1cc2c(c(OC)c1OC)-c1ccc(OC)c(=O)cc1[C@@H](NC(=O)CN(OC)[C@@H]1O[C@H](CO)[C@@H](O[C@H]3O[C@H](CO)[C@@H](O[C@H]4O[C@H](CO)[C@@H](O)[C@H](O)[C@H]4O)[C@H](O)[C@H]3O)[C@H](O)[C@H]1O)CC2 [Col13, maltotrioside] | system: MCF7 9860

* * *

System: SF-268
Assay explanation: Cytotoxicity assay (cell titer-glo and calcein AM), SF-268
Test settings: read-out: Cytotoxicity IC50, SF-268, CTG; SF-268; CTG (cell titer-glo) readout; % error in parentheses
Criterion: IC50 strictly less than 4 µM. Met: TRUE. Not met: FALSE.

These solved cases illustrate the format of a correct answer.
Quick check: does COc1cc2c(c(OC)c1OC)-c1ccc(OC)c(=O)cc1[C@@H](NC(=O)CN(OC)[C@@H]1O[C@H](CF)[C@@H](O)[C@H](O)[C@H]1O)CC2 [Col54, 6-deoxy-6-fluoro-D-glucoside] have IC50 under 4 µM? FALSE

Quick check: does COc1cc2c(c(OC)c1OC)-c1ccc(OC)c(=O)cc1C(NC(=O)CN(OC)C1OCC(O)C(O)C1O)CC2 [Col7, L-lyxoside] have IC50 under 4 µM? FALSE

New cases:
Quick check: does COc1cc2c(c(OC)c1OC)-c1ccc(OC)c(=O)cc1[C@@H](NC(C)=O)CC2 [colchin] have IC50 under 4 µM? TRUE

Quick check: does COc1cc2c(c(OC)c1OC)-c1ccc(OC)c(=O)cc1[C@@H](NC(C)=O)CC2 [Col] have IC50 under 4 µM? FALSE

Quick check: does COc1cc2c(c(OC)c1OC)-c1ccc(OC)c(=O)cc1[C@@H](NC(=O)CN(OC)[C@@H]1O[C@H](CO)[C@@H](O)C[C@H]1O)CC2 [Col3, 3-deoxy-D-glucoside] have IC50 under 4 µM? FALSE

Quick check: does COc1cc2c(c(OC)c1OC)-c1ccc(OC)c(=O)cc1[C@@H](NC(=O)CN(OC)[C@@H]1O[C@H](C(=O)O)[C@@H](O)[C@H](O)[C@H]1O)CC2 [Col15, D-glucuronoside] have IC50 under 4 µM? TRUE

Quick check: does COc1cc2c(c(OC)c1OC)-c1ccc(OC)c(=O)cc1[C@@H](NC(=O)CN(OC)[C@@H]1O[C@H](CSC(C)=O)[C@H](O)[C@H](O)[C@H]1O)CC2 [Col68, 6-deoxy-6-thio-acyl-D-galactoside] have IC50 under 4 µM? TRUE

Quick check: does COc1cc2c(c(OC)c1OC)-c1ccc(OC)c(=O)cc1[C@@H](NC(=O)CN(OC)[C@@H]1O[C@H](CCl)[C@H](O)[C@H](O)[C@H]1O)CC2 [Col41, 6-deoxy-6-chloro-D-galactoside] have IC50 under 4 µM? FALSE

Quick check: does COc1cc2c(c(OC)c1OC)-c1ccc(OC)c(=O)cc1C(NC(=O)CN(OC)C1OC(C)C(O)C(O)C1O)CC2 [Col14, L-fucoside] have IC50 under 4 µM? FALSE

* * *

System: NCI-H460
Assay explanation: Cytotoxicity assay (cell titer-glo and calcein AM), NCI-H460
Test settings: read-out: Cytotoxicity IC50, NCI-H460, calcein; NCI-H460; calcein AM readout; % error in parentheses
Measured attribute: pIC50
Would you please state pIC50, meaning minus log10 of the concentration in mol/L, as a bare number?

State the recorded pIC50 for this entry: COc1cc2c(c(OC)c1OC)-c1ccc(OC)c(=O)cc1[C@@H](NC(=O)CN(OC)[C@H]1C[C@@H](O)[C@H](O)[C@@H](CO)O1)CC2 [Col16, 2-deoxy-D-glucoside] 6.09

State the recorded pIC50 for this entry: COc1cc2c(c(OC)c1OC)-c1ccc(OC)c(=O)cc1[C@@H](NC(=O)CN(OC)[C@@H]1O[C@H](CO)[C@@H](O[C@H]3O[C@H](CO)[C@@H](O[C@H]4O[C@H](CO)[C@@H](O)[C@H](O)[C@H]4O)[C@H](O)[C@H]3O)[C@H](O)[C@H]1O)CC2 [Col13, maltotrioside] 5.59

* * *

System: MCF7
Assay explanation: Cytotoxicity assay (cell titer-glo and calcein AM), MCF7
Test settings: read-out: Cytotoxicity IC50, MCF7, calcein, calcein AM readout, % error in parentheses
Criterion: IC50 strictly less than 4 µM. Met: Yes. Not met: No.

These solved cases illustrate the format of a correct answer.
Quick check: does COc1cc2c(c(OC)c1OC)-c1ccc(OC)c(=O)cc1[C@@H](NC(=O)CN(OC)[C@@H]1O[C@H](CBr)[C@H](O)[C@H](O)[C@H]1O)CC2 [Col42, 6-deoxy-6-bromo-D-galactoside] have IC50 under 4 µM? Yes

Quick check: does COc1cc2c(c(OC)c1OC)-c1ccc(OC)c(=O)cc1[C@@H](NC(=O)CN(OC)[C@@H]1O[C@H](CO)[C@@H](O)[C@H](F)[C@H]1O)CC2 [Col33, 3-fluoro-3-deoxy-D-glucoside] have IC50 under 4 µM? No

Quick check: does COc1cc2c(c(OC)c1OC)-c1ccc(OC)c(=O)cc1[C@@H](NC(=O)CN(OC)[C@@H]1O[C@H](CN=[N+]=[N-])[C@H](O)[C@H](O)[C@H]1O)CC2 [Col43, 6-deoxy-6-azido-D-galactoside] have IC50 under 4 µM? Yes

New cases:
Quick check: does COc1cc2c(c(OC)c1OC)-c1ccc(OC)c(=O)cc1C(NC(=O)CN(OC)C1OCC(O)C(O)C1O)CC2 [Col17, L-xyloside] have IC50 under 4 µM? No

Quick check: does COc1cc2c(c(OC)c1OC)-c1ccc(OC)c(=O)cc1C(NC(=O)CN(OC)C1OCC(O)C(O)C1O)CC2 [Col25, L-arabinoside] have IC50 under 4 µM? Yes

Quick check: does COc1cc2c(c(OC)c1OC)-c1ccc(OC)c(=O)cc1[C@@H](NC(=O)CN(OC)[C@@H]1O[C@H](C)[C@@H](O)[C@H](O)[C@H]1O)CC2 [Col2, 6-deoxy-D-glucoside] have IC50 under 4 µM? No

Quick check: does COc1cc2c(c(OC)c1OC)-c1ccc(OC)c(=O)cc1C(NC(=O)CN(OC)C1OCC(O)C(O)C1O)CC2 [Col22, L-riboside] have IC50 under 4 µM? Yes

Quick check: does COc1cc2c(c(OC)c1OC)-c1ccc(OC)c(=O)cc1[C@@H](NC(=O)CN(OC)[C@@H]1O[C@H](CO)[C@@H](O)C[C@H]1O)CC2 [Col3, 3-deoxy-D-glucoside] have IC50 under 4 µM? No

Quick check: does COc1cc2c(c(OC)c1OC)-c1ccc(OC)c(=O)cc1[C@@H](NC(=O)CN(OC)[C@@H]1OC[C@@H](O)[C@H](O)[C@H]1O)CC2 [Col4, D-xyloside] have IC50 under 4 µM? No

Quick check: does COc1cc2c(c(OC)c1OC)-c1ccc(OC)c(=O)cc1[C@@H](NC(=O)CN(OC)[C@@H]1O[C@H](CCl)[C@H](O)[C@H](O)[C@H]1O)CC2 [Col41, 6-deoxy-6-chloro-D-galactoside] have IC50 under 4 µM? Yes

* * *

Tested on: A549
Assay explanation: Cytotoxicity assay (cell titer-glo and calcein AM), A549
Test settings: read-out: Cytotoxicity IC50, A549, CTG; A549; CTG (cell titer-glo) readout; % error in parentheses
Measured attribute: pIC50
Would you please state pIC50, meaning minus log10 of the concentration in mol/L, as a bare number?

Below: 4 molecules and their reported pIC50.
State the recorded pIC50 for this entry: COc1cc2c(c(OC)c1OC)-c1ccc(OC)c(=O)cc1C(NC(=O)CN(OC)C1OCC(O)C(O)C1O)CC2 [Col25, L-arabinoside] 5.30

State the recorded pIC50 for this entry: COc1cc2c(c(OC)c1OC)-c1ccc(OC)c(=O)cc1[C@@H](NC(=O)CN(OC)[C@@H]1O[C@H](CO)[C@@H](O)C[C@H]1O)CC2 [Col3, 3-deoxy-D-glucoside] 5.00

State the recorded pIC50 for this entry: COc1cc2c(c(OC)c1OC)-c1ccc(OC)c(=O)cc1[C@@H](NC(=O)CN(OC)[C@@H]1O[C@H](C(=O)O)[C@H](O)[C@H](O)[C@H]1O)CC2 [Col18, D-Galacturonoside] 5.96

State the recorded pIC50 for this entry: COc1cc2c(c(OC)c1OC)-c1ccc(OC)c(=O)cc1[C@@H](NC(=O)CN(OC)[C@@H]1O[C@H](C)[C@@H](O)[C@H](O)[C@H]1O)CC2 [Col2, 6-deoxy-D-glucoside] 5.06

--- query ---
State the recorded pIC50 for this entry: COc1cc2c(c(OC)c1OC)-c1ccc(OC)c(=O)cc1[C@@H](NC(=O)CN(OC)[C@@H]1O[C@H](CCl)[C@H](O)[C@H](O)[C@H]1O)CC2 [Col41, 6-deoxy-6-chloro-D-galactoside] 5.43
